TEST_SUMMARY: JC-1 mitochondrial signal, unstimulated HepG2 cells – cell-based, JC-1 fluorescence, 24 h, 100 nL compound, profiling panel (AID 1167); also: test concentration not given here
STATED_CONDITIONS: HepG2 mitochondrial potential, higher = more signal
Is z-score at least 0.8? Then yes (1). If not, no (0).

stdin: I'd appreciate it if you could say whether COC(=O)C(CC#Cc1ccc2c(c1)[C@]1(C(=O)N2)[C@H](c2ccc(O)cc2)N2[C@H](c3ccccc3)[C@H](c3ccccc3)OC(=O)[C@H]2[C@@H]1C(=O)NC[C@H](O)c1ccccc1)C(=O)OC has z-score at least equal to 0.8.
stdout: no (0)

stdin: I'd appreciate it if you could say whether CCCC[C@@H](O)C1=C(COC)C[C@H]2C(=O)N(Cc3ccccc3)C(=O)[C@H]2[C@H]1CO has z-score at least equal to 0.8.
stdout: no (0)

stdin: I'd appreciate it if you could say whether COC(=O)C1=CC(CCCO)=CC(c2cccs2)N(Cc2cccc(OC(F)(F)F)c2)C=C1C(=O)OC (stereo not given) has z-score at least equal to 0.8.
stdout: yes (1)

stdin: I'd appreciate it if you could say whether CC(C)=C1C(=O)C(c2ccccc2)=C2CN3C(=O)N(CCc4ccccc4)C(=O)[C@]3(Cc3ccc(C(F)(F)F)cc3)[C@H]21 has z-score at least equal to 0.8.
stdout: no (0)

stdin: I'd appreciate it if you could say whether CC(C)N1C(=O)C[C@@](C(=O)O)(c2ccc([N+](=O)[O-])cc2)[C@H]1c1ccc(CO)cc1 has z-score at least equal to 0.8.
stdout: yes (1)

stdin: I'd appreciate it if you could say whether CCCCCC1=C2CNC(C)(C(=O)OC)C=C2C(C)C1=O (stereo not given) has z-score at least equal to 0.8.
stdout: no (0)

stdin: I'd appreciate it if you could say whether [N-]=[N+]=Nc1ccccc1C[C@]1(C(=O)NCC(O)CO)COC(c2ccc(OCCCO)cc2)=N1 (stereo not given in full) has z-score at least equal to 0.8.
stdout: no (0)

====

TEST_SUMMARY: FRG1 expression reporter modulators in myotubes – cell-based, C2C12 myotubes, firefly/Renilla luciferase, luminescence, FRG1 inhibition for FSHD, primary screen (AID 1084)
STATED_CONDITIONS: FRG1 promoter luciferase, higher = more signal, called active from +8 up or from −8 down
MEASUREMENT_KIND: z-score
Number only, please.

stdin: Please give measured z-score of the following entry: N[C@@H](Cc1ccccc1)C(=O)NCc1cn(Cc2ccccc2)nn1
stdout: 0.46

stdin: Please give measured z-score of the following entry: [N-]=[N+]=Nc1ccccc1C[C@]1(C(=O)N2CCOCC2)COC(c2ccc(OCCCO)cc2)=N1
stdout: 1.71

stdin: Please give measured z-score of the following entry: CO[C@H]1O[C@H](CO)[C@@H](OC(=O)Nc2ccc3c(c2)OCO3)[C@H](OC(=O)Nc2ccc3c(c2)OCO3)[C@@H]1OC(=O)Nc1ccc2c(c1)OCO2
stdout: 2.2

For the next question, use this compound.
stdin: Please give measured z-score of the following entry: C#CCN([C@@H](Cc1ccccc1)C(=O)OC)[C@@H](/C=C/C1CC1)[C@H](O)Cc1ccccc1
stdout: -4.13

====

Below is a list of entries, each paired with its recorded composite z-score value.
Tested on: Human papillomavirus type 1a protein E7 (residues 44-93)
TEST_SUMMARY: small molecules binding HPV E7 44-93 – biochemical, small-molecule microarray, residues 44-93, 635 nm fluorescence, primary screen (AID 1108);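 also: E7 fragment applied at 1 µg/mL in TBST for 1 h at 4 C; score combines spot fluorescence with its signal to noise ratio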
STATED_CONDITIONS: fluorescence 635 nm, higher = more signal
Number only, please.

stdin: Please give measured composite z-score of the following entry: O=C(Cc1ccccc1)[C@H]1C2C=CCCC(c3ccccc3)=C2CN1Cc1ccccc1 (some centres undefined)
stdout: -0.75

stdin: Please give measured composite z-score of the following entry: CCOC(=O)C[C@H]1[C@H](OC(=O)c2ccc(C(=O)c3ccccc3)cc2)[C@@H](NC(=O)C2CCCCC2)c2cc(OCCCO)ccc2N1C(=O)c1ccc2ccccc2n1
stdout: 1.3

stdin: Please give measured composite z-score of the following entry: CCCC#C[Si](O[C@H](CC)c1cn([C@H](C)c2ccccc2)nn1)(C(C)C)C(C)C
stdout: 0.691

For the next question, use this compound.
stdin: Please give measured composite z-score of the following entry: COc1cc2c(cc1O)C(C1CC1)N(C)CC2 (centres undefined)
stdout: -1.01
